System: T. mentagrophytes
testName: penetration test on excised pig skin: growth inhibition in the lowest region of the horny layer
reportedConditions: Table 1; pig skin, 0.3% strength solutions, washed after 2 hours, lowest part of horny layer
readoutType: Inhibition (%) in the horny layer

- compound: "Cc1cc(C2CCCCC2)n(O)c(=O)c1"
  reported: "98,0%"
- compound: "Cc1cc(C2CC3CCC2C3)n(O)c(=O)c1 (stereo not shown)"
  reported: "79,9%"
- compound: "Cc1ccc(Cc2cc(C)c(C)c(=O)n2O)c(C)c1"
  reported: "80,0%"
- compound: "Cc1cc(CC(C)CC(C)(C)C)n(O)c(=O)c1 (stereo not shown)"
  reported: "99,6%"
- compound: "Cc1cc(CCCCc2ccccc2)n(O)c(=O)c1 [Comparison 3, reference compound]"
  reported: "24,2%"

Q: Name the recorded Inhibition (%) in the horny layer for Cc1cc(CCC2CCCCC2)n(O)c(=O)c1 .
Ans: 81,2%

Q: Name the recorded Inhibition (%) in the horny layer for CCCCCCCc1cc(C)cc(=O)n1O .
Ans: 97,0%

---

Below, each of the molecules is paired with its reported Inhibition (%) on skin value.
Test system: Trichophyton mentagrophytes 109 (100/25)
testName: guinea pig trichophytosis model, inhibition on the skin surface
Set-up: concentration or dose not given beside the values
reportedConditions: in vivo

- molecule: "Cc1cc(CCc2ccccc2)n(O)c(=O)c1"
  assayedSystem: "Trichophyton mentagrophytes 109 (100/25)"
  Inhibition (%) on skin: "88,0%"
- molecule: "Cc1cc(CCC2CCCCC2)n(O)c(=O)c1"
  assayedSystem: "Trichophyton mentagrophytes 109 (100/25)"
  Inhibition (%) on skin: "88,0%"
- molecule: "Cc1cc(CCCCc2ccccc2)n(O)c(=O)c1 [Comparison 3, reference compound]"
  assayedSystem: "Trichophyton mentagrophytes 109 (100/25)"
  Inhibition (%) on skin: "88,0%"
- molecule: "Cc1cc(C2CCCCC2)n(O)c(=O)c1"
  assayedSystem: "Trichophyton mentagrophytes 109 (100/25)"
  Inhibition (%) on skin: "88,0%"
- molecule: "CCCCCCCc1cc(C)cc(=O)n1O"
  assayedSystem: "Trichophyton mentagrophytes 109 (100/25)"
  Inhibition (%) on skin: "89,4%"

Please find the next molecule below.
Q: Name the recorded Inhibition (%) on skin for CCCCC(CC)c1cc(C)cc(=O)n1O (stereo not drawn) .
Ans: 85,6%

---

System: Trichophyton mentagrophytes 109 (100/25)
testName: guinea pig trichophytosis model, inhibition on the skin surface
Set-up: concentration or dose not given beside the values
reportedConditions: in vivo
readoutType: Inhibition (%) on skin

- compound: "Cc1cc(CC(C)CC(C)(C)C)n(O)c(=O)c1 (centres unmarked)"
  reported: "91,9%"
- compound: "CCCCCCCCCCCc1cc(C)cc(=O)n1O [Comparison 2, reference compound]"
  reported: "100,0%"
- compound: "Cc1ccc(Cc2cc(C)c(C)c(=O)n2O)c(C)c1"
  reported: "88,8%"
- compound: "Cc1cc(C2CC3CCC2C3)n(O)c(=O)c1 (centres unmarked)"
  reported: "88,0%"

Please find the next compound below.
Q: Notebook entry, Trichophyton mentagrophytes 109 (100/25) assay: Inhibition (%) on skin of Cc1cc(C(C)C)n(O)c(=O)c1 [Comparison 1, reference compound] = ?
Ans: 75,0%
